Below are pKi measurements against Stromelysin-1 (Homo sapiens, UniProt P08254) drawn from the literature.
Reminder that pKi means the negative base-10 logarithm of the concentration expressed in mol/L.

Example entries begin here.
given smiles	assay value
O=C(C[C@@H](CCCc1ccc(Cl)cc1)C(=O)N[C@@H](CC1CCCCC1)C(=O)NCCC(=O)NCCC(=O)N1CCOCC1)NO	8.86
CNC(=O)[C@@H]1CSc2ccccc2NC(=O)CO[C@H](C(=O)NO)[C@@H](CC(C)C)C(=O)N1	7.65
CC(C)C[C@H](CC(=O)NO)C(=O)N[C@@H](CC1CCCCC1)C(=O)NCCc1ccccc1	7.60
O=C(C[C@@H](CCCc1ccc(Cl)cc1)C(=O)N[C@@H](CC1CCCCC1)C(=O)NCCC(=O)NCCNS(=O)(=O)N1CCOCC1)NO	8.76
CCCC[C@@H](C[C@@H](CCc1ccc(-c2ccc(-c3ncc[nH]3)cc2)cc1)C(=O)N[C@H](C(=O)NC)C(C)(C)C)C(=O)O	7.60

Ask: Return the recorded pKi value; entry: `CCCC[C@@H](C[C@@H](CCc1ccc(-c2ccc(C=O)cc2)cc1)C(=O)N[C@H](C(=O)NC)C(C)(C)C)C(=O)O`
Result: 7.82

Ask: Return the recorded pKi value; entry: `CCCC[C@@H](C[C@@H](CCc1ccc(-c2ccc(C(=O)N(C)C)cc2)cc1)C(=O)N[C@H](C(=O)NC)C(C)(C)C)C(=O)O`
Result: 7.40

Ask: Return the recorded pKi value; entry: `CNC(=O)[C@H](CCCNC(=O)OC(C)(C)C)NC(=O)[C@H](CCCc1ccccc1)[C@@](C)(O)C(=O)NO`
Result: 7.89

Ask: Return the recorded pKi value; entry: `CNC(=O)[C@@H]1CCCN(C(=O)OC(C)(C)C)CCCCO[C@H](C(=O)NO)[C@@H](CCCc2ccccc2)C(=O)N1`
Result: 6.43
